Attribution: the supplement of paper PMC9170038

# Tested on: K4 kissing-loop RNA reporter;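 also: bound reporter read as fluorescence of individual clusters on recovered sequencing chips by microscopy, with normalized cluster intensities fitted with a binding model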
# procedure-details: apparent KD of K4 kissing-loop reporter; higher = weaker reporter binding
# particulars: Eterna round: R107; input ligand: tryptophan 2.4 mM
Please enter class 1 where apparent KD of K4 kissing-loop reporter is greater than or equal to 300 nM, and class 0 where it is lower.

Use these answered entries as a reference point.
- residue-codes: "CAUACGCAUGGAGGAUAUGAGAUUUCUCAUAUUAUUUAUUAUUCUCAGUGAUGUUGGGAUUUAAACUCAGAAGGCCAUGUGUAUG [Ex FMN B 8]"
  assigned-category: "class 0"
- residue-codes: "CCGGGCGGCCGAAGGAGCGGGCGGACCCGAGUGAUGUUCGGGUGGACCGUGAGGUCCGGUGCCCAGGUAGGUCGCGGUUCCGUCC [#2 Same State - Arginine B Attempt #6 (HarryS)]"
  assigned-category: "class 0"
- residue-codes: "UCAAACGAUGGAAGGAGCGCUCGUCAGUCCUGCGAGUGAUGUUCGUGGGUAAAUAGUCGCGAGCAGGUAGGUCGCCAUCUUAAGC [Bisodi]"
  assigned-category: "class 0"
- residue-codes: "UGAUUAAGCAGUGAUGUUGCAAGUAAUGAUACCAGUUAAGAAGAGAACCCUUGGCAGCAUAAAGUGCGCUCUGAUGAGUGUGCUU [whbob_SS_Theo_A_w53]"
  assigned-category: "class 0"
- residue-codes: "GGCCGCAAGGCGAGCGCUCCCACUCCGGAAGGAGCGCCCGCAAGGGCAGGUAGGUCGCCGGAGUGAUGUUCCGGUGGAGGGCUCG [#2 Exclusion - Arginine A Attempt #16 (Inspired by Omei)]"
  assigned-category: "class 1"

For this sequence, is measured apparent KD of K4 kissing-loop reporter 300 nM or higher? AGACUACCACACUGUCAAUAGACAGUGAACUCGGAUAUGCUGAUAAGCAGAAGGAGUGAUGUUCCGAGGUAGUCAAUAAAAUAAU [FmnAX 13 C32+G66]
class 1

For this sequence, is measured apparent KD of K4 kissing-loop reporter 300 nM or higher? UUUCGUUGAAGUGAUACCAGACUUGAAAGUGAUGUUUUCCAAUAAAUUAAAUUAUUAGCUGUCCCUUGGCAGCACAGUUUAUUUA [JR_ExcTheophyB_Sub006]
class 0

====

apparent KD of MS2 coat protein values for the sequences below.
# System: MS2 coat protein
# procedure-details: apparent KD of MS2 coat protein; higher = weaker reporter binding
# particulars: Eterna round: R107; input ligand: tryptophan 2.4 mM
Kindly answer with a numeric value in nM, unit omitted.

Solved entries:
- residue-codes: "UCGACAAGAACAAUAAACAGCACUUGAGAAGGAGCGCGGAAAUCCGCAGGUAGGUCGCUCAUGUGUACAUGAGGAUCACCCAUGU [Inveonxeed]"
  measured-on: "MS2 coat protein"
  apparent KD of MS2 coat protein [nM]: 34.5
- residue-codes: "UUUGAUUAGAGAAGGAGCGUGAUAUUUAUAUAGUGUGUAUGUACAUGAGGAUCACCCAUGUCACAGGUAGGUCGCUCUGAUAAGG [JR_Nu_ExcArginiB_Sub030]"
  measured-on: "MS2 coat protein"
  apparent KD of MS2 coat protein [nM]: 16.1

For the next question, use this sequence.
Need apparent KD of MS2 coat protein, item UGUAACAUGAGGAUCACCCAUGUGAGUGAUACCAGACUAGUAUUAGUCCCUUGGCAGCACGUUGGGCGAGUGUAUAGUCUAUGCG [Same State - Theophylline A (Freestyle 14)]
80.3

====

# System: MS2 coat protein
# procedure-details: apparent KD of MS2 coat protein, switch OFF state (with FMN for OFF switches, without FMN for ON switches); designed switch direction (-1 OFF switch, 1 ON switch): 1; higher = weaker reporter binding
# particulars: FMN input: 0 or 200 uM; Eterna round: R93 (includes R88 designs)
// map apparent KD of MS2 coat protein onto a label; ranges one (below 0.04 µM), two (0.04 µM to below 0.07 µM), three (0.07 µM or more)

Use these answered entries as a reference point.
- residue-codes: "AAUAUAUUAUUUAAGGAUAUCAUAGGAAACACAUGAGGAUCACCCAUGUGGGAGACUUGGACGGGUGAGAAGGUGGAUAAUAUAU [Samwise Clockwise 37 - Jieux - Same State 2]"
  assigned-category: "one"
- residue-codes: "CGAAAGGAGAGAGAGGAUAUCCAAAGGAAAACAUGAGGAUCACCCAUGUAGAAGGUAGGAGAUUGGGAGAAGGCUCAAGAGAUAU [salish99-ss2-153]"
  assigned-category: "two"
- residue-codes: "GAAAAACAUGAGGAUCACCCAUGUAGAAAUAUGGGAGGAUAUACAAAGUGGAAAGACAAAGUAGAAGGCCUAAAAG [Garnet 25]"
  assigned-category: "three"
- residue-codes: "AAGAAACAUGAGGAUCACCCAUGUAAGAUAAACACAGGAUAUGCGAAAAGAACAAAAGAAGCAGAAGGGUGAAGAA [Mat - Same State 1 - Tesla mod - D145]"
  assigned-category: "two"
- residue-codes: "CCUAGACAUGAGGAUCACCCAUGUCGAACAAACAAAGGAUAUGGGAGCCGAAGAAGGCUAUUAGAAGGUUGCAAAU [Aisedbi]"
  assigned-category: "one"
- residue-codes: "AAAGUACAUGAGGAUCACCCAUGUUGAAAAAAUCGAGGAUAUGCGAAAAAAAAAAAAAAAGCAGAAGGUGAAAAAA [I 'NO' this state well 2]"
  assigned-category: "one"
- residue-codes: "CGCAAACAUGAGGAUCACCCAUGUCAAUGUGGUCAAGGAUAUGGGUUCCUAAAUGGAACACCAGAAGGUGAAAAGA [Anesatve]"
  assigned-category: "two"
- residue-codes: "AACAAUCUAUCUGAGGAUAUCAAGUCAAAGACAUGAGGAUCACCCAUGUUGCAGGAAACUGCUCUUGAGAAGGCAGAUAGAUUGA [SS2: 1130]"
  assigned-category: "one"

Class (by measured apparent KD of MS2 coat protein) for GAACCACAUGAGGAUCACCCAUGUCUAAGAAUGGGAGGAUAUGCACAAAAGGAAAUAACUGCAGAAGGCCUACGAA [62%, Redo, 2]
three

Class (by measured apparent KD of MS2 coat protein) for GGAAGACAUGAGGAUCACCCAUGUGGGAAUAUGGGAGGAUAUACAAAGACGAGAGUCAGAGUAGAAGGCCUAGGAA [salish99-ss1-99]
three

====

# Tested on: MS2 coat protein
# procedure-details: apparent KD of MS2 coat protein; higher = weaker reporter binding
# particulars: Eterna round: R107; input ligand: theophylline 2 mM
Please enter t where apparent KD of MS2 coat protein is greater than or equal to 30 nM, and f where it is lower.

Use these answered entries as a reference point.
- residue-codes: "UAUCCACAUGAGGAUCACCCAUGUUAGGAAGGAGCGGUGAAUGAACCAGGUAGGUCGCCUAGCUGAGGACCAUCGAUGGAUUCGU [Exclusion - Arginine A (Freestyle 15)]"
  measured-on: "MS2 coat protein"
  assigned-category: "f"
- residue-codes: "GCGCUCGACAGAAGGAGCGGCGACGUCGGUGUCAGGAGGCACAUGAGGAUCACCCAUGUCAGCCAGGUAGGUCGCUGUCGAUCGC [Arquce]"
  measured-on: "MS2 coat protein"
  assigned-category: "t"

Would you kindly look at the next entry?
For this sequence, is measured apparent KD of MS2 coat protein 30 nM or higher? CUACAUUUGUAGAAACCGGUCAACAAUAAUCGAGGACCGGUACGGCCGCCACUCGAUGUGAAAUACACAUGAGGAUCACCCAUGU [Tryptophan A 13]
f

====

apparent KD of MS2 coat protein values for the sequences below.
# Tested on: MS2 coat protein
# procedure-details: apparent KD of MS2 coat protein; higher = weaker reporter binding
# particulars: Eterna round: R107; input ligand: theophylline 2 mM
Kindly answer with a numeric value in nM, unit omitted.

Need apparent KD of MS2 coat protein, item UAUCCACAUGAGGAUCACCCAUGUAGGGAAGGAGCGGUGAUUUCACCAGGUAGGUCGCCUUGCUGAGGGUUGCCGGUGGAAUCGU [Exclusion - Arginine A (Freestyle 33)]
13.1

Need apparent KD of MS2 coat protein, item GGACAUGCAGGAAGGAGCGACACAGCAGAAACUGCAAAUCCUCCACACGAGGAUCACCCGUGUCAGGUAGGUCGCCUGCAUGUCG [ArgXB 14 #Zipper #MS2Left #StaticStem #Blueprint]
126

Need apparent KD of MS2 coat protein, item ACAUGAGGGCGAAGGAGCGCGAACAUGAGGAUCACCCAUGUGUAUGUAUGUUGUCAUGUAUCGCAGGUAGGUCGCGCUGUUACAU [Exclusion Arginine B]
341

====

# Tested on: MS2 coat protein
# procedure-details: apparent KD of MS2 coat protein; higher = weaker reporter binding
# particulars: Eterna round: R107; input ligand: tryptophan 2.4 mM
reported-property: apparent KD of MS2 coat protein (nM)
Kindly answer with a numeric value in nM, unit omitted.

Solved entries:
- residue-codes: "UUAUCUAUAUUCGAUACCAGUACCCUGGCCGCAAAUCCUAACAUGAGGAUCACCCAUGUGUACCCUUGGCAGCGGGUAUGGGUUU [XTheo B #29]"
  apparent KD of MS2 coat protein (nM): 24.2
- residue-codes: "CCUAUGCAGUCGGCCGCCACUGUACAUGAGGAUCACCCAUGUUCCAAAAUAAAAGGAACUGAAAUCAGGACCGGGACUGUAUAGG [Ex Tryptophan B 1]"
  apparent KD of MS2 coat protein (nM): 32.6
- residue-codes: "UGAUACCAGUCGGCCGCCACUAUGCUAGAUACUAGCAAUAAAUGGGAACAUGAGGAUCACCCAUGUAGGACCGGGACUGGUAUCU"
  apparent KD of MS2 coat protein (nM): 64
- residue-codes: "CGUGGUGGGACGGAUACCAGCCACCGCGGCAACGCAACAUGAGGAUCACCCAUGUUGGGUGGCCCUUGGCAGCUGUCCUGCGACG [#1 Same State - Theophylline B Attempt #27 (HarryS)]"
  apparent KD of MS2 coat protein (nM): 10.1
- residue-codes: "AGGACAUCGAGAAGGAGCGCAUCCAAACCACACAUGAGGAUCACCCAUGUAUAAAUAUGCAUGCAGGUAGGUCGCUCGGCGUCUU [Leanerin]"
  apparent KD of MS2 coat protein (nM): 87.4

Need apparent KD of MS2 coat protein, item UUUACAUGAGGAUCACCCAUGUGCCAUGAUACCAGACAUGAAAAUGUCCCUUGGCAGCAUGAGUGAUUCAUCCGAAAGGAUGUUU [Jehnice]
103

Need apparent KD of MS2 coat protein, item GUAAUUUUAAGAAGGAGCGUCGAAAAUGGGUAAACAUGAGGAUCACCCAUGUAAAGGGAACGACAGGUAGGUCGCUUAGGAUUAC [AstromonsSSArgB#23]
198

Need apparent KD of MS2 coat protein, item GUUGGAUGCUCGGCCGCCACUGAGAGAGUCAUGUGAACAUGAGGAUCACCCAUGUAAUAUAUAUACAGGACCGGGAGUGUUGUAA [4.J]
13.3

Need apparent KD of MS2 coat protein, item ACGAACGAUAGUGAUACCAGACGUACAUGAGGAUCACCCAUGUUAUACACAUGGUUUAUUGUCCCUUGGCAGCACGAUAAGUUCG [JR_ExcTheophyB_Sub004]
282

Need apparent KD of MS2 coat protein, item UACACAUGACAUGAUACCAGCCCAUGUGAACAUGAGGAUCACCCAUGUAUGAGGACAUGAGGCCCUUGGCAGCAUGUAUACAUGA [Same State Theophylline B 2]
11.4

Need apparent KD of MS2 coat protein, item GUUGGUUUGGGAAGGAGCGGGUAUGUUGUCUACUUGAUCCUAACAUGAGGAUCACCCAUGUCCCAGGUAGGUCGCCCAAGCUUUG [12.aE]
186

Need apparent KD of MS2 coat protein, item UGUACAUGAGGAUCACCCAUGUUACAUGAUACCAGACAUGAGAGUGUCCCUUGGCAGCAUGGAGCUGAUACGGCGGGAAGCCGGA [#09 SameState-TheophyllineA]
27

Need apparent KD of MS2 coat protein, item GGUCUCUGGAGCGAUACCAGCUUAAGUGUACUGGCCAGGUACAUGAGGAUCACCCAUGUAAGCCCUUGGCAGCGCUCCAGAGACC [#1 Exclusion - Theophylline B Attempt #14 (HarryS)]
12.2

Need apparent KD of MS2 coat protein, item CGAAAGCAGUGAUCCAGCUUUCGCCUGGAAGGAGCGAGCGAAAGCUCAGGUAGGUCGCCAGAAACAUGAGGAUCACCCAUGUAAU [(A)''-(M)'-(A)'-(Arg1)-(Arg2)-(M1)-(M2)_Design8]
75.5

Need apparent KD of MS2 coat protein, item UGCACUCAUGCGGCCGCCACUGUCGGCCGCCACUAAACAUGAGGAUCACCCAUGUAGGACCGGGACAGGACCGGGCAUGGGUGCU [TryBS - #DoubleAptamer 2]
9.97
